FYI, the data here is from patent US10940139B2.

# Test system: MAPK phosphorylation in PANC-1 pancreatic cancer cell line
# ASSAY DETAILS: MAPK cell-based phosphorylation assay (cell-direct ELISA, EGF stimulation)
# CONDITIONS USED: Homo sapiens
METRIC NAME: IC50

>  <COMPOUND>
N#Cc1ncn(-c2nc(-c3ccccn3)nc3sc(-c4ccccc4)cc23)n1 [drawing 1083]

>  <IC50>
2 to 10 µM

$$$$

Record Oc1nc(-c2ccccn2)nc2c(-c3ccccc3)csc12 [drawing 1074] ; system MAPK phosphorylation in PANC-1 pancreatic cancer cell line; IC50 = < 2 µM

Record O=C(c1csc2c(O)nc(-c3ccccn3)nc12)N1CCOC(c2nccs2)C1 (stereo not drawn) [drawing 1129] ; system MAPK phosphorylation in PANC-1 pancreatic cancer cell line; IC50 = > 30 µM
